# Test system: carboxy peptidase
# protocol-description: Resistance to peptidase: decomposition by carboxy peptidase (HPLC)
# Assay type: in vitro ADME
# conditions-used: isolated carboxy peptidase (SIGMA); 1 U/ml enzyme in PBS, 37° C., peptide 0.2 mg/ml; time at which half of the peptide was decomposed; read-out: half period by carboxy peptidase (t1/2)
*1 amine or outer side, *2 acyl side, *3 side chain or, on linkers, in order; H or OH if unused. Where a SMILES comes first, the peptide text is derived from it. Bridges are numbered along the chain shown (N, C = ends). X1 = O=C(C[*:2])[*:1]
Use 1 when the recorded half-life at 0.2 mg/ml is no lower than 3 min; use 0 when it is lower.

| compound | assigned-class |
| --- | --- |
| CCC(=O)N1CCCC[C@H](NC(=O)[C@@H](N)Cc2ccc(O)cc2)C(=O)N[C@@H](Cc2c[nH]c3ccccc23)C(=O)N[C@@H](CO)C(=O)N[C@@H](CCC(N)=O)C(=O)N[C@@H](Cc2ccc(O)cc2)C(=O)N[C@@H](CC(C)C)C(=O)N(CC(=O)N[C@@H](Cc2ccc(O)cc2)C(=O)O)CCCC1 [Bdev-27] | 1 |
| CC(C)C[C@@H]1NC(=O)[C@H](Cc2ccc(O)cc2)NC(=O)[C@H](CCC(N)=O)NC(=O)[C@H](CO)NC(=O)[C@H](Cc2c[nH]c3ccccc23)NC(=O)[C@@H](NC(=O)[C@@H](N)Cc2ccc(O)cc2)CSSC[C@@H](C(=O)N[C@@H](Cc2ccc(O)cc2)C(=O)O)NC1=O [STD, reference compound] | 0 |
| CC(C)C[C@@H]1NC(=O)[C@H](Cc2ccc(O)cc2)NC(=O)[C@H](CCC(N)=O)NC(=O)[C@H](CO)NC(=O)[C@H](Cc2c[nH]c3ccccc23)NC(=O)[C@@H](NC(=O)[C@@H](N)Cc2ccc(O)cc2)CCCCNC(=O)CSC[C@@H](C(=O)N[C@@H](Cc2ccc(O)cc2)C(=O)O)NC1=O [Comp. 1, reference compound] (H-YKWSQYLCY-OH; linker 2-8 via X1) | 0 |
| CC(=O)N1CCCC[C@@H](C(=O)N[C@@H](Cc2ccc(O)cc2)C(=O)O)NC(=O)[C@H](CC(C)C)NC(=O)[C@H](Cc2ccc(O)cc2)NC(=O)[C@H](CCC(N)=O)NC(=O)[C@H](CO)NC(=O)[C@H](Cc2c[nH]c3ccccc23)NC(=O)[C@@H](NC(=O)[C@@H](N)Cc2ccc(O)cc2)CCCC1 [Bdev-25] | 0 |
| CC(=O)N[C@@H](Cc1ccc(O)cc1)C(=O)N[C@H]1CCCCNCCCCN(CC(=O)N[C@@H](Cc2ccc(O)cc2)C(=O)O)C(=O)[C@H](CC(C)C)NC(=O)[C@H](Cc2ccc(O)cc2)NC(=O)[C@H](CCC(N)=O)NC(=O)[C@H](CO)NC(=O)[C@H](Cc2c[nH]c3ccccc23)NC1=O [Bdev6] | 0 |
| COCCOCCOCCOCCC(=O)N1CCCC[C@H](NC(=O)[C@@H](N)Cc2ccc(O)cc2)C(=O)N[C@@H](Cc2c[nH]c3ccccc23)C(=O)N[C@@H](CO)C(=O)N[C@@H](CCC(N)=O)C(=O)N[C@@H](Cc2ccc(O)cc2)C(=O)N[C@@H](CC(C)C)C(=O)N(CC(=O)N[C@@H](Cc2ccc(O)cc2)C(=O)O)CCCC1 [Bdev-29] | 1 |
| CCCCC(=O)N1CCCC[C@H](NC(=O)[C@@H](N)Cc2ccc(O)cc2)C(=O)N[C@@H](Cc2c[nH]c3ccccc23)C(=O)N[C@@H](CO)C(=O)N[C@@H](CCC(N)=O)C(=O)N[C@@H](Cc2ccc(O)cc2)C(=O)N[C@@H](CC(C)C)C(=O)N(CC(=O)N[C@@H](Cc2ccc(O)cc2)C(=O)O)CCCC1 [Bdev-28] | 1 |
| CC(C)C[C@@H]1NC(=O)[C@H](Cc2ccc(O)cc2)NC(=O)[C@H](CCC(N)=O)NC(=O)[C@H](CO)NC(=O)[C@H](Cc2c[nH]c3ccccc23)NC(=O)[C@@H](NC(=O)[C@@H](N)Cc2ccc(O)cc2)CCCCNCCCCN(CC(=O)N[C@@H](Cc2ccc(O)cc2)C(=O)O)C1=O [Bdev8] | 0 |
| CC(=O)N1CCCCN(CC(=O)N[C@@H](Cc2ccc(O)cc2)C(=O)O)C(=O)[C@H](CC(C)C)NC(=O)[C@H](Cc2ccc(O)cc2)NC(=O)[C@H](CCC(N)=O)NC(=O)[C@H](CO)NC(=O)[C@H](Cc2c[nH]c3ccccc23)NC(=O)CN(C(=O)[C@@H](N)Cc2ccc(O)cc2)CCCC1 [Bdev-21] | 1 |
